Source: patent US20250163119A1

assay: Pharmacokinetics in Cynomolgus monkeys, single subcutaneous or intravenous dose; assay type: in vivo; settings: both sexes, cynomolgus monkey, plasma, sc, 187 nmol/kg, single subcutaneous dose 187 nmol/kg, Mean, read-out: CL/F (converted)
*1 amine or outer side, *2 acyl side, *3 side chain or, on linkers, in order; H or OH if unused. Side-chain parts run from the residue outwards. [ ]: non-standard residue; d: D form. The star is where a group is joined. C20 diacid = O=C(O)CCCCCCCCCCCCCCCCCCC(=O)*; γGlu = O=C(O)[C@H](CCC(=O)[*:2])N[*:1]; εLys = N[C@@H](CCCCN[*:1])C(=O)[*:2]; αMeL = CC(C)C[C@](C)(N)C(=O)O; AEEA = NCCOCCOCC(=O)O; Aib = CC(C)(N)C(=O)O
quantity: CL/F (mL/day/kg)
Numbers only, in mL/day/kg.

Looking up Ac-GSPSIVTS[αMeL]DVPT[Aib][αMeL]LQKILEQERAEKARQQAK([γGlu-AEEA-εLys-C20 diacid])EAAEILAQV-NH2 [SEQ ID NO: 1] , I found its CL/F recorded as 19.5
